The entries below are paired with their reported Ret.
# Species on record: Rattus norvegicus
# assay.notes: Open TG-GATES - Regimen: Daily Repeat
# Type: toxicity, organism-based, Sprague-Dawley
# Set-up: regimen Daily Repeat, gender Male, age 6 weeks
# conditions: in vivo, po, 0 mg/kg, […], tissue Blood, route gavage, dose level Control, time 28 day
Write the number in % without appending the unit.

1) Cn1cc[nH]c1=S [METHIMAZOLE]: 2.6
2) Cc1cccc(C)c1OCC(C)N (centres undefined) [MEXILETINE]: 2.9
3) O=C1CN(/N=C/c2ccc([N+](=O)[O-])o2)C(=O)N1 [NITROFURANTOIN]: 2.4

# ---- query molecule ----
For the molecule C[C@H]1O[C@H](O[C@H]2[C@H](O)[C@@H](O)[C@@H](O[C@H]3[C@H](O)[C@@H](O)C(O)O[C@@H]3CO)O[C@@H]2CO)[C@H](O)[C@@H](O)[C@@H]1N[C@H]1C=C(CO)[C@@H](O)[C@H](O)[C@H]1O (some centres undefined) [ACARBOSE] , what Ret is on record?
2.2

----------
# Organism: Rattus norvegicus
# assay.notes: Open TG-GATES - Regimen: Single
# Type: toxicity, organism-based, Sprague-Dawley
# Parameters: regimen Single, gender Male, age 6 weeks
# conditions: in vivo, po, 0 mg/kg, 3 h, tissue Blood, route gavage, dose level Control
Catalogue of Lym readings, one per entry.
The figure you give is taken to be in %; do not add the unit.

What value of measured Lym is listed for Cc1cccc(C)c1OCC(C)N (stereo not given) ?
80.6

Could you do the same for CCOC(=O)C(C)(C)Oc1ccc(Cl)cc1 [CLOFIBRATE] , please?
81.8

Next: C[C@H]1O[C@H](O[C@H]2[C@H](O)[C@@H](O)[C@@H](O[C@H]3[C@H](O)[C@@H](O)C(O)O[C@@H]3CO)O[C@@H]2CO)[C@H](O)[C@@H](O)[C@@H]1N[C@H]1C=C(CO)[C@@H](O)[C@H](O)[C@H]1O (stereo not given in full)
78.6

And the next one, OCCN1CCN(CCCN2c3ccccc3Sc3ccc(C(F)(F)F)cc32)CC1 ?
80.4

What about this molecule? Cc1ccc2cc3c(ccc4ccccc43)c3c2c1CC3
79.2

----------
# Species on record: Rattus norvegicus
# assay.notes: Open TG-GATES - Regimen: Single
# Type: toxicity, organism-based, Sprague-Dawley
# Design: regimen Single, gender Male, age 6 weeks
# conditions: in vivo, po, 0 mg/kg, 9 h, tissue Plasma, route gavage, dose level Control
Measured TG, listed per entry.
// return numeric value only (unit: mg/dL, not printed)

# count of solved cases: 2
1) Cc1ccc2cc3c(ccc4ccccc43)c3c2c1CC3: 52.7
2) Cn1cc[nH]c1=S: 75.6

What does the record list as TG for Cc1cccc(C)c1OCC(C)N (stereo not drawn) ?
53.2

----------
# Organism: Rattus norvegicus
# assay.notes: Open TG-GATES - Regimen: Daily Repeat
# Type: toxicity, organism-based, Sprague-Dawley
# Parameters: regimen Daily Repeat, gender Male, age 6 weeks
# conditions: in vivo, po, 0 mg/kg, […], tissue Blood, route gavage, dose level Control, time 28 day
Reported Fbg is given for each of the following compounds.
Write the answer as a number in mg/dL, unit excluded.

If you can, please state the reported Fbg value of CCOC(=O)C(C)(C)Oc1ccc(Cl)cc1 [CLOFIBRATE] .
219.4

Same for O=[N+]([O-])c1ccc(O)c([N+](=O)[O-])c1
278.4

Another compound: Cn1cc[nH]c1=S
316.6

The measured values listed here are drawn from ChEMBL document CHEMBL3885861.
